Target: T1, purified HLA B*0702 molecules (human)
T1 MHC heavy: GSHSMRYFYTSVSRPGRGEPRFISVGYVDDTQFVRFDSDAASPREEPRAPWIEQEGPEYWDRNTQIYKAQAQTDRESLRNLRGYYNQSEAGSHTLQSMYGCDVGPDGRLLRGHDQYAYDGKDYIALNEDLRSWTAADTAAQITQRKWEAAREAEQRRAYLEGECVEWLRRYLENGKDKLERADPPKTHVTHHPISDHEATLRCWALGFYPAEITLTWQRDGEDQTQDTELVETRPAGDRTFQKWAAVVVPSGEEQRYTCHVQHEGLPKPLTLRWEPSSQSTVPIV
Test: inhibition of radiolabeled probe peptide binding to purified HLA
Quantity kind: IC50

Please give the documented IC50 of SPNPTVEAGR [NS52646-2655]
> 1000 nM
